The reported numbers originate from ChEMBL document CHEMBL1154472.

# IC50 values compiled below
- Measured On: Human immunodeficiency virus type 1 integrase (Human immunodeficiency virus 1, UniProt Q7ZJM1, H114A)
- Sequence (Q7ZJM1 entry or part of it H114A): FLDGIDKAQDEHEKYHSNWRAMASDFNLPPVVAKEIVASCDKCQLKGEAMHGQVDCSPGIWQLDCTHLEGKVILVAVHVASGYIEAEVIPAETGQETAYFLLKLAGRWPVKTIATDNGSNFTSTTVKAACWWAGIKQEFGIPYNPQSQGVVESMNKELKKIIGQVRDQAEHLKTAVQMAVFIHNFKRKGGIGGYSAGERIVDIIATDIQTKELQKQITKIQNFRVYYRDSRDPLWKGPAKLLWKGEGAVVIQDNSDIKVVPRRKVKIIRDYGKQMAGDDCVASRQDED
- Assay Text: Inhibition of HIV1 integrase H114A mutant strand transfer activity
Dear colleague, please return just the value in µM, with no unit written.

Some molecules with known IC50 results, for comparison:
Cc1cc(Cl)cc2c1S(=O)(=O)NC(C(=O)c1ccc3ccccc3c1)S2 (configuration not stated)
23
Cc1cc(Cl)cc2c1S(=O)(=O)N=C(C(=O)c1ccc3ccccc3c1)S2
23
Cc1cc2c(cc1Cl)SC(C(=O)c1ccccc1)NS2(=O)=O (configuration not stated)
9
O=C(c1ccc(Cl)c(Cl)c1)C1NS(=O)(=O)c2ccc(Cl)cc2S1 (configuration not stated)
18
O=C(C1=NS(=O)(=O)c2ccc(Cl)cc2S1)c1ccc(Cl)c(Cl)c1
18

Lookup: Endpoint output: IC50 of Cc1cc2c(cc1Cl)SC(C(=O)c1ccc(Cl)cc1)=NS2(=O)=O . Value?
Found: 16

Lookup: Another molecule: O=C(c1ccc2ccccc2c1)C1NS(=O)(=O)c2ccc(Cl)cc2S1 (configuration not stated)
Found: 15

Lookup: Check O=C(C1=NS(=O)(=O)c2ccc(Cl)cc2S1)c1ccc(Cl)cc1 too.
Found: 18

Lookup: One more molecule: Cc1cc2c(cc1Cl)SC(C(=O)c1ccccc1)=NS2(=O)=O
Found: 9

Lookup: Another molecule to check: O=C(c1ccc(Cl)cc1)C1NS(=O)(=O)c2ccc(Cl)cc2S1 (configuration not stated)
Found: 18

Lookup: Next up: Cc1cc2c(cc1Cl)SC(C(=O)c1ccc(Cl)cc1)NS2(=O)=O (configuration not stated)
Found: 16

Lookup: Also, O=C(C1=NS(=O)(=O)c2ccc(Cl)cc2S1)c1ccc2ccccc2c1 please.
Found: 15

###

- Measured On: UniProt Q7ZJM1
- Assay Text: Inhibition of HIV1 integrase strand transfer activity in presence of magnesium
Readout Name: IC50
Dear colleague, please send the value followed by its unit.

O=C(c1ccc(Cl)cc1)C1NS(=O)(=O)c2ccc(Cl)cc2S1 (stereo unspecified)
25 µM
O=C(c1ccc(Cl)c(Cl)c1)C1NS(=O)(=O)c2ccc(Cl)cc2S1 (stereo unspecified)
25 µM
Cc1cc(Cl)cc2c1S(=O)(=O)NC(C(=O)c1ccc3ccccc3c1)S2 (stereo unspecified)
51 µM
Cc1cc2c(cc1Cl)SC(C(=O)c1ccc(Cl)cc1)NS2(=O)=O (stereo unspecified)
40 µM
Cc1cc2c(cc1Cl)SC(C(=O)c1ccccc1)NS2(=O)=O (stereo unspecified)
27 µM

Lookup: Lab note: need IC50 for O=C(c1ccc2ccccc2c1)C1NS(=O)(=O)c2ccc(Cl)cc2S1 (stereo unspecified) on UniProt Q7ZJM1, anyone have it?
Found: 28 µM

###

- Measured On: Human immunodeficiency virus type 1 integrase (Human immunodeficiency virus 1, UniProt Q7ZJM1)
- Sequence (Q7ZJM1 whole entry): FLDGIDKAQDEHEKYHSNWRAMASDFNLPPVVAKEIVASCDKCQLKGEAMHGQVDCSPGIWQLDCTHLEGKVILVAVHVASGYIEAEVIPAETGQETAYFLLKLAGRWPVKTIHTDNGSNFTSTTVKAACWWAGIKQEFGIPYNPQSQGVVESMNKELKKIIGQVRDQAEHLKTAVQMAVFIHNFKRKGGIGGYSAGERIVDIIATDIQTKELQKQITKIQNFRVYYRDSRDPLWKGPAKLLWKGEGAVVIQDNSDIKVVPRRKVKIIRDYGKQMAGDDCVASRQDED
- Assay Text: Inhibition of HIV1 integrase 3'-end processing activity in presence of magnesium
Entries annotated with measured IC50
Form entry: enter the amount, then its unit.

Recorded results for 3 molecules are shown here.
O=C(c1ccc(Cl)c(Cl)c1)C1NS(=O)(=O)c2ccc(Cl)cc2S1 (stereo unspecified)
58 µM
Cc1cc(Cl)cc2c1S(=O)(=O)NC(C(=O)c1ccc3ccccc3c1)S2 (stereo unspecified)
83 µM
Cc1cc2c(cc1Cl)SC(C(=O)c1ccccc1)NS2(=O)=O (stereo unspecified)
60 µM

Lookup: So what's the measured IC50 for this one? O=C(c1ccc(Cl)cc1)C1NS(=O)(=O)c2ccc(Cl)cc2S1 (stereo unspecified)
Found: 51 µM

Lookup: Next entry: Cc1cc2c(cc1Cl)SC(C(=O)c1ccc(Cl)cc1)NS2(=O)=O (stereo unspecified)
Found: 63 µM

Lookup: # repeat for O=C(c1ccc2ccccc2c1)C1NS(=O)(=O)c2ccc(Cl)cc2S1 (stereo unspecified)
Found: 55 µM

###

- Measured On: Human immunodeficiency virus type 1 integrase (Human immunodeficiency virus 1, UniProt Q7ZJM1, Y99S)
- Sequence (Q7ZJM1 entry or part of it Y99S): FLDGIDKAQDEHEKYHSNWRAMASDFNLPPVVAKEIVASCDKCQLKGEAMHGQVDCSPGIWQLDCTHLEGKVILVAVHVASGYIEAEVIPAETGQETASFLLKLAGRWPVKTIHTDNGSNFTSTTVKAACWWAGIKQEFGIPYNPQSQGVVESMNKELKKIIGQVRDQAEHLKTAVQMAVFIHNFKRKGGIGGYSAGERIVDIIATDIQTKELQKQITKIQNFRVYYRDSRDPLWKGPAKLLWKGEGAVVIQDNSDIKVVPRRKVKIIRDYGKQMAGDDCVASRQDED
- Assay Text: Inhibition of HIV1 integrase Y99S mutant strand transfer activity
Readout Name: pIC50
pIC50 here: minus log base 10 of the concentration, concentration in moles per litre.

The cases that follow already have their pIC50 on record.
Cc1cc2c(cc1Cl)SC(C(=O)c1ccc(Cl)cc1)=NS2(=O)=O
4.70
Cc1cc2c(cc1Cl)SC(C(=O)c1ccc(Cl)cc1)NS2(=O)=O (stereo not given)
4.70

Lookup: Form field: reported pIC50 of O=C(c1ccc(Cl)cc1)C1NS(=O)(=O)c2ccc(Cl)cc2S1 (stereo not given)
Found: 4.70

Lookup: And Cc1cc(Cl)cc2c1S(=O)(=O)NC(C(=O)c1ccc3ccccc3c1)S2 (stereo not given) ?
Found: 4.64

Lookup: Would you mind doing O=C(C1=NS(=O)(=O)c2ccc(Cl)cc2S1)c1ccc(Cl)c(Cl)c1 as well?
Found: 4.70

###

Known pIC50 of a selection of molecules
- Measured On: UniProt Q7ZJM1
- Assay Text: Inhibition of HIV1 integrase 3'-end processing activity
Give only the number. pIC50 is defined as minus log10 of concentration in molar units.

Study these solved cases before continuing.
O=C(c1ccc(Cl)cc1)C1NS(=O)(=O)c2ccc(Cl)cc2S1 (stereo not drawn)
5.10
O=C(c1ccc(Cl)c(Cl)c1)C1NS(=O)(=O)c2ccc(Cl)cc2S1 (stereo not drawn)
5.05

Consider the record given below.
Lookup: Item under review: O=C(C1=NS(=O)(=O)c2ccc(Cl)cc2S1)c1ccc(Cl)cc1 . Reported pIC50?
Found: 4.00

###

- Measured On: Human immunodeficiency virus type 1 integrase (Human immunodeficiency virus 1, UniProt Q7ZJM1, H114A)
- Assay Text: Inhibition of HIV1 integrase H114A mutant 3'-end processing activity
Readout Name: pIC50
Note on pIC50: it is the negative log10 of concentration, concentration in mol/L.

Observe how each entry below is paired with its result.
Cc1cc2c(cc1Cl)SC(C(=O)c1ccc(Cl)cc1)NS2(=O)=O (centres undefined)
4.74
O=C(C1=NS(=O)(=O)c2ccc(Cl)cc2S1)c1ccc(Cl)c(Cl)c1
4.74
Cc1cc(Cl)cc2c1S(=O)(=O)NC(C(=O)c1ccc3ccccc3c1)S2 (centres undefined)
4.48

As a next step, examine the molecule that follows.
Lookup: I am curious: what pIC50 value has been reported for Cc1cc2c(cc1Cl)SC(C(=O)c1ccccc1)=NS2(=O)=O ?
Found: 4.82

###

- Measured On: Human immunodeficiency virus type 1 integrase (Human immunodeficiency virus 1, UniProt Q7ZJM1)
- Assay Text: Inhibition of HIV1 integrase 3'-end processing activity
Readout Name: IC50 (µM)
# value in µM; strip the unit string

Recorded results for 3 molecules are shown here.
Cc1cc(Cl)cc2c1S(=O)(=O)NC(C(=O)c1ccc3ccccc3c1)S2 (centres undefined)
9
Cc1cc2c(cc1Cl)SC(C(=O)c1ccccc1)=NS2(=O)=O
12
O=C(c1ccc(Cl)c(Cl)c1)C1NS(=O)(=O)c2ccccc2S1 (centres undefined)
22

We now examine a further molecule.
Lookup: Returns the measured IC50 for the input molecule. Input: Cc1cc2c(cc1Cl)SC(C(=O)c1ccccc1)NS2(=O)=O (centres undefined)
Found: 7
